B1: S. cerevisiae Abp1 (full length; SH3 domain 535-592 mutated) / Hua2 (parent)
chain 1: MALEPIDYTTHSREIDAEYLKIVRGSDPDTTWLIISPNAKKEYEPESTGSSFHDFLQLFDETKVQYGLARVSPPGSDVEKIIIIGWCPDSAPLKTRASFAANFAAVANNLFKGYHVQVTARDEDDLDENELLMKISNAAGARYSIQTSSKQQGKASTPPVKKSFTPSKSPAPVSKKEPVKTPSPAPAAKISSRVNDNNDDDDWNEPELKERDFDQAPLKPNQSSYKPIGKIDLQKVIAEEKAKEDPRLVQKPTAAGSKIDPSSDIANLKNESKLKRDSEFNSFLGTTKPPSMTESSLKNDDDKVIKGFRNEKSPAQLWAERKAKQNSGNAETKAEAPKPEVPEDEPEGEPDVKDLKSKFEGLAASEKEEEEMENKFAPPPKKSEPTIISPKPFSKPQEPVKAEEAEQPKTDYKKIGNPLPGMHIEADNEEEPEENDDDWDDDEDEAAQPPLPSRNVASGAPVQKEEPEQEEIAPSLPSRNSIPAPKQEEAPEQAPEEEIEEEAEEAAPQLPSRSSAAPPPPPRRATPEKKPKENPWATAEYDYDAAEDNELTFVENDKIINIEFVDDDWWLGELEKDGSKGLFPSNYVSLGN
chain 2: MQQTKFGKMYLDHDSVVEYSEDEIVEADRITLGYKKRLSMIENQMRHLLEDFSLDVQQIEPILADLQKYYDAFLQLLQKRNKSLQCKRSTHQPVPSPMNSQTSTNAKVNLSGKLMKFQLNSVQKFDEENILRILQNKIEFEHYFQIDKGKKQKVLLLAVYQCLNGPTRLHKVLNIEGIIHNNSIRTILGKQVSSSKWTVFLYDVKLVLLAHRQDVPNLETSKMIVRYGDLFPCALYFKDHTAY

variants of: B1; test: DHFR protein-fragment complementation in yeast (Abp1-DHFR F[1,2] x partner-DHFR F[3]), deep mutational scanning, second methotrexate selection vs reference; conditions: with Hua2; S. cerevisiae, DHFR-PCA selection in liquid with methotrexate at 30 C, two 72 h selections (the score uses the second); reference = the pre-selection culture; not an affinity; scale: DMS score: mean over two replicates of log2(f_test/f_ref + 0.5)/ln 2, minus the synonymous-codon median
property: screen value

[
  {
    "mutationDescriptor": "chain 1 L582V",
    "screen value": -2
  },
  {
    "mutationDescriptor": "chain 1 A546P",
    "screen value": -2.02
  },
  {
    "mutationDescriptor": "chain 1 W536A",
    "screen value": -1.3
  },
  {
    "mutationDescriptor": "chain 1 E547A",
    "screen value": -2.3
  },
  {
    "mutationDescriptor": "chain 1 E575G",
    "screen value": -1.41
  },
  {
    "mutationDescriptor": "chain 1 L574H",
    "screen value": -1.08
  },
  {
    "mutationDescriptor": "chain 1 T552Q",
    "screen value": -1.13
  },
  {
    "mutationDescriptor": "chain 1 L574G",
    "screen value": -2.91
  }
]

I: chain 1 F564G
II: chain 1 K558N
# input // which entry has the larger screen value value, I or II ? Return value: the label identifying the chosen record.
# output II

P: chain 1 E573G
Q: chain 1 W570C
# input // which entry has the larger screen value value, P or Q ? Return value: the label identifying the chosen record.
# output Q
(Q: -1.57, P: -2.56)

a: chain 1 L551E
b: chain 1 K580Y
# input Compare screen value: is it lower for a or for b ? Return value: the label identifying the chosen record.
# output a
(a: -2.9, b: -1.88)

1: chain 1 V588L
2: chain 1 T538W
# input // which entry has the larger screen value value, 1 or 2 ? Return value: the label identifying the chosen record.
# output 2
(2: -1.19, 1: -2.21)

Where do the numbers come from? From paper PMC7954794.
